# TARGET_OR_SYSTEM: T1, FZD5 CRD (Homo sapiens, UniProt Q13467)
# T1 construct: K29-T156; GPI anchor signal (C); expressed in transfected cells; host or cells: CHO cells, lentiviral pLenti-puro
# T1 sequence (Q13467 29-156): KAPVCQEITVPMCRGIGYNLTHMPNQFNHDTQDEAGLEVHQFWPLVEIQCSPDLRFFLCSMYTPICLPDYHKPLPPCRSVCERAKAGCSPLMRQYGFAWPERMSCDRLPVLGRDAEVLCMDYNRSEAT
# ASSAY_NAME: Immunofluorescence of anti-FZD5 Fab binding to CHO cells overexpressing Frizzled CRD
# Parameters: key: −: no binding; +: very weak binder; ++: weak binder; +++: good binder; ++++: very good binder
VALUE_TYPE: Immunofluorescence binding, Frizzled CRD overexpressed on CHO cells: FZD5

Given item Fab-2920: anti-FZD5 Fab with antibody variable region Fv-2920; CDR SEQ ID NOs: 35, 36, 59, 98, 135, 170 (antibody, V domains shown) VH: EVQLVESGGGLVQPGGSLRLSCAASGFNISYYYIHWVRQAPGKGLEWVASIYPSSGSTSYADSVKGRFTISADTSKNTAYLQMNSLRAEDTAVYYCARGGMDYWGQGTLVTVSS VL: DIQMTQSPSSLSASVGDRVTITCRASQSVSSAVAWYQQKPGKAPKLLIYSASSLYSGVPSRFSGSRSGTDFTLTISSLQPEDFATYYCQQWFAGALITFGQGTKVEIK , the value recorded as its Immunofluorescence binding, Frizzled CRD overexpressed on CHO cells: FZD5 is ++++

Given item Fab-2912: anti-FZD5 Fab with antibody variable region Fv-2912; CDR SEQ ID NOs: 35, 36, 51, 90, 127, 164 (antibody, V domains shown) VH: EVQLVESGGGLVQPGGSLRLSCAASGFNISYSYIHWVRQAPGKGLEWVASISSSSGYTSYADSVKGRFTISADTSKNTAYLQMNSLRAEDTAVYYCARTVRGSKKPYFSGWAMDYWGQGTLVTVSS VL: DIQMTQSPSSLSASVGDRVTITCRASQSVSSAVAWYQQKPGKAPKLLIYSASSLYSGVPSRFSGSRSGTDFTLTISSLQPEDFATYYCQQFYFPYLITFGQGTKVEIK , the value recorded as its Immunofluorescence binding, Frizzled CRD overexpressed on CHO cells: FZD5 is +++
